Target: MDM2 (Homo sapiens)
Experiment: fluorescence polarization assay, MDM2 binding
pKi: −log10 of the molar value.
parameter.measured: pKi

1. Cc1ccccc1S(=O)(=O)N1C(=O)/C(=C/c2ccccc2Cl)c2ccccc21
2. O=C1/C(=C/c2ccccc2Cl)c2ccccc2N1S(=O)(=O)c1cccc(Cl)c1
3. Cc1cccc(C(=O)N2C(=O)/C(=C/c3ccccc3Cl)c3ccccc32)c1
4. O=C1/C(=C/c2cccc(Cl)c2)c2ccccc2N1S(=O)(=O)c1cccc(F)c1
-- ask Which order do these items fall in when sorted by pKi from largest to smallest? Dear reader, please state the labels in the requested order.
-- reply 4, 2, 1, 3

---

Attribute: melting point

The cases that follow already have their melting point on record.
O=C1/C(=C/c2ccccc2Cl)c2ccccc2N1C(=O)c1cccc(Cl)c1    219 to 220.8 °C
Cc1cccc(S(=O)(=O)N2C(=O)/C(=C/c3cccc(Cl)c3)c3ccccc32)c1    147.4 to 149.2 °C
O=C1/C(=C/c2cccc(Cl)c2)c2ccccc2N1S(=O)(=O)c1ccc(F)cc1    141.7 to 143.1 °C
O=C1/C(=C/c2ccccc2Cl)c2ccccc2N1S(=O)(=O)c1ccc(Cl)cc1    172.4 to 173.1 °C
Cc1ccc(S(=O)(=O)N2C(=O)/C(=C/c3ccccc3Cl)c3ccccc32)cc1    148.9 to 150.5 °C

-- ask Recorded melting point for "O=C1/C(=C/c2ccccc2Cl)c2ccccc2N1C(=O)c1ccc(Cl)cc1" , please?
-- reply 221.3 to 222.7 °C

-- ask And for "O=C1/C(=C/c2ccc(Cl)cc2)c2ccccc2N1C(=O)c1cccc(Cl)c1" ?
-- reply 141.3 to 142.3 °C

-- ask Repeat for the following compound: "O=C1/C(=C/c2ccccc2Cl)c2ccccc2N1S(=O)(=O)c1ccccc1"
-- reply 138.2 to 139.9 °C

-- ask Next: "O=C1/C(=C/c2ccccc2Cl)c2ccccc2N1C(=O)c1ccccc1Cl"
-- reply 214.5 to 216.2 °C

-- ask Next: "Cc1ccc(S(=O)(=O)N2C(=O)/C(=C/c3ccc(Cl)cc3)c3ccccc32)cc1"
-- reply 134.1 to 135.6 °C

-- ask What about "Cc1ccc(C(=O)N2C(=O)/C(=C/c3ccccc3Cl)c3ccccc32)cc1" ?
-- reply 145.3 to 146.9 °C

-- ask Try the compound "O=C1/C(=C/c2cccc(Cl)c2)c2ccccc2N1C(=O)c1ccc(Cl)cc1"
-- reply 103.5 to 104.8 °C

-- ask Field entry: "O=C1/C(=C/c2cccc(Cl)c2)c2ccccc2N1S(=O)(=O)c1ccccc1Cl"
-- reply 125.1 to 126.3 °C

-- ask Follow-up item: "Cc1ccccc1C(=O)N1C(=O)/C(=C/c2ccccc2Cl)c2ccccc21"
-- reply 111.2 to 112.8 °C

-- ask And then "O=C1/C(=C/c2ccccc2Cl)c2ccccc2N1S(=O)(=O)c1ccccc1Cl" , what is it?
-- reply 157.2 to 158.1 °C

-- ask How about "Cc1cccc(C(=O)N2C(=O)/C(=C/c3ccccc3Cl)c3ccccc32)c1" ?
-- reply 128.2 to 129.7 °C

-- ask Let us now turn to "O=C1/C(=C/c2cccc(Cl)c2)c2ccc(Cl)cc2N1S(=O)(=O)c1cccc(Cl)c1"
-- reply 132.6 to 133.8 °C

-- ask Quick one: "Cc1ccc(S(=O)(=O)N2C(=O)/C(=C/c3cccc(Cl)c3)c3ccccc32)cc1"
-- reply 136.3 to 138.1 °C

-- ask Field entry: "Cc1ccccc1S(=O)(=O)N1C(=O)/C(=C/c2cccc(Cl)c2)c2ccccc21"
-- reply 140.9 to 143.2 °C

-- ask Another compound: "O=C1/C(=C/c2cccc(Cl)c2)c2ccccc2N1S(=O)(=O)c1ccccc1"
-- reply 115.1 to 117.3 °C

-- ask Now the compound "O=C1/C(=C/c2cccc(Cl)c2)c2ccccc2N1C(=O)c1cccc(Cl)c1"
-- reply 112.4 to 114 °C

-- ask # repeat for "O=C1/C(=C/c2cccc(Cl)c2)c2ccccc2N1C(=O)c1ccccc1Cl"
-- reply 108.3 to 109.7 °C

-- ask Record: "O=C1/C(=C/c2cccc(Cl)c2)c2cc(Cl)ccc2N1S(=O)(=O)c1cccc(Cl)c1"
-- reply 177.8 to 178.7 °C

-- ask Query "O=C1/C(=C/c2cccc(Cl)c2)c2ccccc2N1S(=O)(=O)c1ccc(Cl)cc1" next
-- reply 137.5 to 139.6 °C

-- ask # repeat for "Cc1ccccc1S(=O)(=O)N1C(=O)/C(=C/c2ccc(Cl)cc2)c2ccccc21"
-- reply 155.2 to 157.1 °C

-- ask "COc1ccc(S(=O)(=O)N2C(=O)/C(=C/c3cccc(Cl)c3)c3ccccc32)cc1" ?
-- reply 175.1 to 176.7 °C

-- ask // repeat for "O=C1/C(=C/c2cccc(Cl)c2)c2ccccc2N1S(=O)(=O)c1cccc([N+](=O)[O-])c1" and report
-- reply 195.3 to 197 °C

-- ask Now try "O=C1/C(=C/c2ccc(Cl)cc2)c2ccccc2N1S(=O)(=O)c1cccc(Cl)c1" .
-- reply 184.8 to 185.6 °C

---

Biological target: MDM2 (Homo sapiens, UniProt Q00987)
Sequence (Q00987 whole entry): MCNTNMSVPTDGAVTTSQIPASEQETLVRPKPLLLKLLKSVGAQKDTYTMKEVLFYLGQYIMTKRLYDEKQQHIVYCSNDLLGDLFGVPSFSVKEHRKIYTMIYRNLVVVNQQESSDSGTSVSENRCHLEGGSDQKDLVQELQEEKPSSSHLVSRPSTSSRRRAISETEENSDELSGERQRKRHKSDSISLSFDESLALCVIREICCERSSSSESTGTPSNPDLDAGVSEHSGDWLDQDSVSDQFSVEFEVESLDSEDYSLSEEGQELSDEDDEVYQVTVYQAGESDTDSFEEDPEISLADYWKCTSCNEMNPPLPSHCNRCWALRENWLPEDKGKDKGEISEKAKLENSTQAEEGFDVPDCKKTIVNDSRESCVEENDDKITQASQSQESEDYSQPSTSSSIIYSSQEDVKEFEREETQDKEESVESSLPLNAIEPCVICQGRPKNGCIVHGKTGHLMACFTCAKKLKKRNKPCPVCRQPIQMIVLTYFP
Assay: fluorescence polarization assay, MDM2 binding
parameter.measured: Ki (nM)

O=C1/C(=C/c2cccc(Cl)c2)c2ccccc2N1S(=O)(=O)c1cccc([N+](=O)[O-])c1    1390
O=C1/C(=C/c2ccccc2Cl)c2ccccc2N1C(=O)c1cccc(Cl)c1    8430
O=C1/C(=C/c2ccccc2Cl)c2ccccc2N1S(=O)(=O)c1ccccc1Cl    3430
O=C1/C(=C/c2cccc(Cl)c2)c2ccccc2N1C(=O)c1cccc(Cl)c1    8630
O=C1/C(=C/c2cccc(Cl)c2)c2ccccc2N1S(=O)(=O)c1ccccc1    1470
O=C1/C(=C/c2cccc(Cl)c2)c2ccccc2N1S(=O)(=O)c1cccc(C(F)(F)F)c1    92

A. O=C1/C(=C/c2ccccc2Cl)c2ccccc2N1S(=O)(=O)c1ccc(Cl)cc1
B. O=C1/C(=C/c2ccccc2Cl)c2ccccc2N1C(=O)c1ccc(Cl)cc1
-- ask Larger number for Ki: A , or B ? State the label of the item chosen.
-- reply B
(B: 7860 nM, A: 1530 nM)

---

Target: MDMX (Homo sapiens, UniProt O15151)
Assay: fluorescence polarization assay, MDMX binding
Details: read-out: Ki (μM) ± SD MDMX; fluorescence polarization, PMDM-F peptide, pH 7.5
parameter.measured: Ki (µM)

Recorded Ki, per entry:
O=C1/C(=C/c2cccc(Cl)c2)c2ccccc2N1S(=O)(=O)c1ccc(Cl)cc1 [Compound A14]    18.2
O=C1/C(=C/c2cccc(Cl)c2)c2cc(Cl)ccc2N1S(=O)(=O)c1cccc(Cl)c1 [Compound A29]    32.2

1. O=C1/C(=C/c2cccc(Cl)c2)c2ccccc2N1S(=O)(=O)c1ccc(Br)cc1 [Compound A17]
2. O=C1/C(=C/c2cccc(Cl)c2)c2ccc(Cl)cc2N1S(=O)(=O)c1cccc(Cl)c1 [Compound A30]
3. O=C1/C(=C/c2cccc(Cl)c2)c2ccccc2N1S(=O)(=O)c1cccc(Br)c1 [Compound A16]
-- ask Number of molecules to sort: 3. Sort criterion: Ki, ascending. // format: requested-order list of labels
-- reply 3, 2, 1
(3: 16.2 µM, 2: 29 µM, 1: 43.2 µM)

---

Target: UniProt O15151
Sequence (O15151 1-490): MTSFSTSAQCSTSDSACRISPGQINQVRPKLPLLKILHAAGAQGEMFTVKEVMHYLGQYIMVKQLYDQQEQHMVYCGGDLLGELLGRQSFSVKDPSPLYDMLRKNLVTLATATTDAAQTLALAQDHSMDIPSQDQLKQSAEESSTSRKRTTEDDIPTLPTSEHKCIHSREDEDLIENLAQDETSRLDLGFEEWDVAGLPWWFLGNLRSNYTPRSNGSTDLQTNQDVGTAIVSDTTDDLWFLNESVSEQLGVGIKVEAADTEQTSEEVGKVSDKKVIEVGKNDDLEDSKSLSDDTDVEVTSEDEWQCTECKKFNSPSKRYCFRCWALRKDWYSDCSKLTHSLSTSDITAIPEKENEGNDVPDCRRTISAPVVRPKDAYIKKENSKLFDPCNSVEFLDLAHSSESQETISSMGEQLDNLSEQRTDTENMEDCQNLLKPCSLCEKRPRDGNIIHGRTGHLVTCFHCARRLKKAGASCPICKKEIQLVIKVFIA
Test: fluorescence polarization assay, MDMX binding
parameter.measured: Ki (µM)

COc1ccc(S(=O)(=O)N2C(=O)/C(=C/c3cccc(Cl)c3)c3ccccc32)cc1    42.2
O=C1/C(=C/c2cccc(Cl)c2)c2ccccc2N1S(=O)(=O)c1cccc(C(F)(F)F)c1    19.3
O=C1/C(=C/c2ccccc2Cl)c2ccccc2N1S(=O)(=O)c1ccc(Cl)cc1    20.4

P. O=C1/C(=C/c2ccccc2Cl)c2ccccc2N1S(=O)(=O)c1ccccc1Cl
Q. O=C1/C(=C/c2cccc(Cl)c2)c2ccccc2N1S(=O)(=O)c1ccccc1Cl
R. O=C1/C(=C/c2cccc(Cl)c2)c2ccccc2N1S(=O)(=O)c1cccc([N+](=O)[O-])c1
S. O=C1/C(=C/c2cccc(Cl)c2)c2ccccc2N1S(=O)(=O)c1cccc(Cl)c1
-- ask Put the items in sequence by Ki, from largest down. Give me the labels in the order the question wants.
-- reply P, Q, R, S
